All figures here come from patent US20230012273A1.

I'd be grateful if you could share measured kon for these entries.
# system.under.test: T1, cynoSIRPα (NP_001271679), Extracellular Domain + His-Tag (cynomolgus monkey)
# T1 construct: also called CySIRPα NP_001271679; not shown: His-Tag
# T1 chain: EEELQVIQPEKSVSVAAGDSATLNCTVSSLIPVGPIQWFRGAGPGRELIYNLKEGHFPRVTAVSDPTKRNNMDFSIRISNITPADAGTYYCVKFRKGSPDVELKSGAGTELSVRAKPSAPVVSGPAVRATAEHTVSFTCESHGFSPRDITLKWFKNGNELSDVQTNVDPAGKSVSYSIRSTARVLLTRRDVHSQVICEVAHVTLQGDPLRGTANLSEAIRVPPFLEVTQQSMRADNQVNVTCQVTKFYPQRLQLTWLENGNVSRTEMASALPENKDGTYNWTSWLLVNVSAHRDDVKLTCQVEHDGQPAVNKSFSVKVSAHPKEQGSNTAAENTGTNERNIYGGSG
# assay.info: SPR, antibody captured on Protein A/G, ECD-His analyte, 1:1 fit
Numbers only, in M⁻¹ s⁻¹.

For orientation, consider the following solved cases.
INPUT: Tell me measured kon for Antibody E1 (antibody, human IgG1, kappa, L234A L235A, V domains shown) VH: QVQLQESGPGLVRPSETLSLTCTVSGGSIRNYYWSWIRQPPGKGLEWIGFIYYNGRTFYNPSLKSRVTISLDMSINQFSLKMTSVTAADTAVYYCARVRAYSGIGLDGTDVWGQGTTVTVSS VL: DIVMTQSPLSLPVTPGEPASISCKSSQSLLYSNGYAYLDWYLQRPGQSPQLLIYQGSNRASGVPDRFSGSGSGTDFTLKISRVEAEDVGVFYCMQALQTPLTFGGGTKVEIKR please.
OUTPUT: 183000

INPUT: Indicate the recorded kon value for this binder: Antibody E2 (antibody, human IgG1, kappa, L234A L235A, V domains shown) VH: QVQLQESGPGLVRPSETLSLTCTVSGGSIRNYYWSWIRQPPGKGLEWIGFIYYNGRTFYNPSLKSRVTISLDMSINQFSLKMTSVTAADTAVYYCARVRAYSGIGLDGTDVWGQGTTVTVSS VL: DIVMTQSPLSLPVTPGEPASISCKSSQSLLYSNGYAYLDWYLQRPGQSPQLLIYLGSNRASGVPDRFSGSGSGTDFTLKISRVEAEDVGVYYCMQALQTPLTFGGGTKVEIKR
OUTPUT: 254000

INPUT: Check the records and state kon for Antibody E21 (antibody, human IgG1, kappa, L234A L235A, V domains shown) VH: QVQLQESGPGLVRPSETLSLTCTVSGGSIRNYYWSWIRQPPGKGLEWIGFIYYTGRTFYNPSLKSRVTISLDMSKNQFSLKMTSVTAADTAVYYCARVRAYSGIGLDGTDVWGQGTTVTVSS VL: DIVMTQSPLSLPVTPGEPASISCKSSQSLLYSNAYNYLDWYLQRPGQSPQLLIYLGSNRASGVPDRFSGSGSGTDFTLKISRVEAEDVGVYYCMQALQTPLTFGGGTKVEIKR
OUTPUT: 225000

INPUT: Look up kon of Antibody E20 (antibody, human IgG1, kappa, L234A L235A, V domains shown) VH: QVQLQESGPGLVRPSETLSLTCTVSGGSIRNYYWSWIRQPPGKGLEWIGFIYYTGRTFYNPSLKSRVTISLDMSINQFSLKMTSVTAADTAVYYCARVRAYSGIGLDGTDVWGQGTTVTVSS VL: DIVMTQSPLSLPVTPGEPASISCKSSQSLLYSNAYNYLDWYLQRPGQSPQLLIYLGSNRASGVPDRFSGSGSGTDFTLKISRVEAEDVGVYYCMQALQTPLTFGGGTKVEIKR and report it.
OUTPUT: 251000

In the following, a different binder is considered.
INPUT: In one line, give reported kon of the entry Antibody E16 (antibody, human IgG1, kappa, L234A L235A, V domains shown) VH: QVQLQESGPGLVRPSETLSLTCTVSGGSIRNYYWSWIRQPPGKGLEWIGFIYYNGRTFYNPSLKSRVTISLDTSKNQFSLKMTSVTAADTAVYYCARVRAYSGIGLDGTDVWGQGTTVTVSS VL: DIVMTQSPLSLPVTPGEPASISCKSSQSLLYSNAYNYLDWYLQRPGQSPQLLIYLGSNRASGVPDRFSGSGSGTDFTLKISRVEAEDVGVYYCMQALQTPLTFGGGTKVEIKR .
OUTPUT: 313000
